Molecular target: T1, human ferroportin (SLC40A1) fused in frame with GFP, stably expressed in HEK293 cells (human, UniProt Q9NP59 1-571)
T1 sequence (looked up): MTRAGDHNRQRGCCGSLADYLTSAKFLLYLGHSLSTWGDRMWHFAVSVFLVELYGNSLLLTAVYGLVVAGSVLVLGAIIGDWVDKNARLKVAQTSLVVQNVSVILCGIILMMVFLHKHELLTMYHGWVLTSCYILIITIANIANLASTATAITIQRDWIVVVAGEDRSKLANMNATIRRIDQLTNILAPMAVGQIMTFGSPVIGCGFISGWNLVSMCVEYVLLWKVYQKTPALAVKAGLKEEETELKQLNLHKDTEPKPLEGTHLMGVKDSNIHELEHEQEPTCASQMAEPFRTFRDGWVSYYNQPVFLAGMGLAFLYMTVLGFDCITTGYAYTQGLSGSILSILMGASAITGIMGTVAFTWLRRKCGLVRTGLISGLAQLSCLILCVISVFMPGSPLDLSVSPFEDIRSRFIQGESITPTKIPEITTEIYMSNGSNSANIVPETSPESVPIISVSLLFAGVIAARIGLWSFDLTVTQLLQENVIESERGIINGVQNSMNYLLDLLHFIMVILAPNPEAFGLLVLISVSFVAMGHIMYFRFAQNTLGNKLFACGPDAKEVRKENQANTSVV
Assay: cell-based or functional assay
Non-standard residues stand in square brackets, D forms with d. Groups on a side chain read outwards from the residue. *: point of attachment. C18 diacid = O=C(O)CCCCCCCCCCCCCCCCC(=O)*; Dip = N[C@H](C(=O)O)C(c1ccccc1)c1ccccc1; β3hF = N[C@H](CC(=O)O)Cc1ccccc1; 4Amb = NCc1ccc(C(=O)O)cc1; Isovaleryl = CC(C)CC(=O)*; AEEA = NCCOCCOCC(=O)O; Ahx = NCCCCCC(=O)O
For each of the binders below, state its IC50: FPN internalisation.
Numbers only, in nM.

// solved cases for IC50: FPN internalisation follow
[
  {
    "binder": "Isovaleryl-ETH[Dip]PC[4Amb]K([AEEA-AEEA-Ahx-C18 diacid])[β3hF][dK]C-NH2 (not fully specified (bridges); cysteine pairing not given here) [Seq. No. 550]",
    "resultType": "IC50: FPN internalisation",
    "measuredResult": 13.1
  },
  {
    "binder": "XXTHXPCIXXXC ([Isovaleric Acid]-[Glu(OMe)]-T-H-[Dpa]-P-C-I-[Lys(1PEG2_1PEG2_Dap_C18_Diacid)]-[Achc]-[(D)Lys]-C-NH2) [Seq. No. 507]",
    "resultType": "IC50: FPN internalisation",
    "measuredResult": 29.6
  },
  {
    "binder": "XETHXPCIXXXXC ([Isovaleric Acid]-E-T-H-[Dpa]-P-C-I-[(D)Lys]-[bhPhe]-[Lys(DMG_N_2ae_Palm)]-[(D)Lys]-C-NH2) [Seq. No. 525]",
    "resultType": "IC50: FPN internalisation",
    "measuredResult": 7.98
  }
]

Problem: Name the recorded IC50: FPN internalisation of the item XETHXPCIXXXC ([Isovaleric Acid]-E-T-H-[Dpa]-P-C-I-[Lys(PEG12_Dap_C18_Diacid)]-[bhPhe]-[(D)Lys]-C-NH2) [Seq. No. 517] in your answer.
Solution: 9.58
